Source: paper PMC6071530

target_or_test_system: T1, human extracellular ErbB4/Fc chimera (human, UniProt Q15303 26-651)
T1 construct: ErbB4, human, extracellular part; also called Fc-conjugated ErbB4; source: bought: R&D Systems (carrier free)
T1 sequence (looked up): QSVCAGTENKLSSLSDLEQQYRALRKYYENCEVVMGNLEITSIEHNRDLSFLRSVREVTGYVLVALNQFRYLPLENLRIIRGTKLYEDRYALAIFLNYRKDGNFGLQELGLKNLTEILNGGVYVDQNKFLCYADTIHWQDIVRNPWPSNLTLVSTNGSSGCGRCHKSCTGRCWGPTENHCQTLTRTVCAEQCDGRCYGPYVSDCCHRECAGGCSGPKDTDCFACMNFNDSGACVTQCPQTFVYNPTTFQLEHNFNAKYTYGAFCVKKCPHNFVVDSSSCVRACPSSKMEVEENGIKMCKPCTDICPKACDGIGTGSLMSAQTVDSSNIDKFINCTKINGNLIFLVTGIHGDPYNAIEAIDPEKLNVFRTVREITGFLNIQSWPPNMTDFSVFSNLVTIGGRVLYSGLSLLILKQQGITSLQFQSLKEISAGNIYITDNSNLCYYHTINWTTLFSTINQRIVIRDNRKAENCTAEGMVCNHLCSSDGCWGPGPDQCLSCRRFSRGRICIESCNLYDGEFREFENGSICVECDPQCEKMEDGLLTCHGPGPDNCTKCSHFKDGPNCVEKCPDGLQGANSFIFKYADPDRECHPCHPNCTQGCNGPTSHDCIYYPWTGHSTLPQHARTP
test_details: SPR; BIAcore 2000; 2000 RU of ErbB/Fc chimera immobilized covalently on a CM4 chip; S100A4 or peptides as analyte; apparent affinities calculated from binding kinetics
experimental_parameters: both partners purified
No end group written: not given here.
recorded_endpoint: pKd
Entry type: numeric. Quantity: pKd, the -log10 of concentration in molar units.

KELLTRELPSFLGKRT (also: tetramer: four monomers coupled to a lysine backbone, motif of S100A4 with high homology within the S100 family; Dendrimeric tetramer: four copies of the peptide on a lysine backbone; source: synthetic peptide (Schafer-N, Denmark)) [H3 peptide (S100A4-derived), tetramer on a lysine backbone] | 6.70

We now examine a further binder.
Give the measured pKd of NEFFEGFPDKQPRKK (also: tetramer: four monomers coupled to a lysine backbone, low-homology ('unique') motif in the C-terminal of S100A4; Dendrimeric tetramer: four copies of the peptide on a lysine backbone; source: synthetic peptide (Schafer-N, Denmark)) [H6 peptide (S100A4-derived), tetramer on a lysine backbone] . 6.66
